molecular target: T1, cynomolgus PD-1 ECD (Acro Biosystems cat. no. PD1-05223) (cynomolgus, UniProt B0LAJ3 25-170); assay: SPR, antibody on sensor, monomeric PD-1 ECD in solution
T1 construct: Bought monomeric ECD; not shown: any purification tag of the vendor's product (Acro Biosystems PD1-05223, probably a His tag)
T1 sequence (B0LAJ3 entry or part of it limits assumed): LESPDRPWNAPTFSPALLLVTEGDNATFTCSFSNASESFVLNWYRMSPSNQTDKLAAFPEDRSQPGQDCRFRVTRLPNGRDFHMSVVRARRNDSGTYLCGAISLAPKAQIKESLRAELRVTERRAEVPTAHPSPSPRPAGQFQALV
Measure name: koff (s⁻¹)

{"Binder": "antibody 18413 (antibody, V domains shown, Tested as human IgG1 L234A/L235A (LALA), kappa) VH: EVQLVESGGGLVQPGGSLRLSCAASGFTFSSFVMSWVRQAPGKGLEWLSTISGGGGSTYYADSVKGRFTISRDNSKNTLYLQMNSLRAEDTAVYYCAKDWDLYYFDYWGQGTLVTVSS VL: DIQLTQSPSSVPASVGDRVTITCRASQGISNWLAWYQQKPGKAPKLLIYAASSLQSGVPSRFSGSGSGTDFTLTISSLQPEDFATYYCQQANSFPLTFGGGTKVEIKR", "Measure name": "koff", "Test value": 0.00062}
{"Binder": "antibody 18113 (antibody, V domains shown, Tested as human IgG1 L234A/L235A (LALA), kappa) VH: QVQLVESGGGLVKPGGSLRLSCAASGFTFSDYYMSWIRQAPGKGLEWVSYISSSGSTIYYADSAKGRFTISRDNAKNSLYLQMNSLRAEDTAVYYCARDTNWAFDYWGQGTLVTVSS VL: DIQLTQSPDSLAVSLGERATINCKSSQSVFYSANNKNYLAWYQQKPGQPPKLLIYWTSTRESGVPDRFRGSGSGTDFTLTISSLQAEDVAVYYCQQFYSTPRTFGQGTKVEIKR", "Measure name": "koff", "Test value": 0.00076}
{"Binder": "antibody 18325 (antibody, V domains shown, Tested as human IgG1 L234A/L235A (LALA), kappa) VH: QVQLQQSGGGLVQPGGSLRLSCAASGFTFSSHVMNWVRQAPGKGLEWVATISGSGVDTYYADSVKGRFTISRGNSKNMLYLQMNSLRAEDTAVYYCAKWGSWSAGAFDIWGQGTMVTVSS VL: EIVLTQSPSSVSASVGDRVTITCRASQGISSWLAWYQQKPGKAPKLLIYAASSLQSGVPSRFSGSGSGTDFTLTISSLQPEDFATYYCQQANSFPWTFGQGTKVEIKR", "Measure name": "koff", "Test value": 0.00062}
